- target_or_test_system: T1, human C-KIT-Fc (human, UniProt P10721 26-524)
- T1 construct: also called biotinylated human C-KIT-Fc; not shown: Fc part not described
- procedure_summary: HTRF competition vs Tb-h37M IgG1
Recorded IC50 by entry
test_readout: IC50 (µg/mL)

binder: E-C7 (antibody, IgG1, V domains shown, IgG1; also called C-KIT-E-C7) VH: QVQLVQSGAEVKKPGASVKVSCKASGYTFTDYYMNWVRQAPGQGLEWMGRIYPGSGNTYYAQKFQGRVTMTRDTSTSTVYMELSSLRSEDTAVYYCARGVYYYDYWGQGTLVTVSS VL: DIQMTQSPSSLSASVGDRVTITCRASQGIRTNLAWFQQKPGKAPKSLIYSASSLQSGVPSRFSGSGSGTDFTLTISSLQPEDFATYYCQQYNSYPRTFGGGTKVEIK
test_readout: IC50
measured_number: 0.028
//
binder: F-C5 (antibody, IgG1, V domains shown, IgG1; also called C-KIT-F-C5; F-05) VH: QVQLVQSGAEVKKPGASVKVSCKASGYTFTDYYMNWVRQAPGQGLEWMGRIYPGSGNTYYAQKFQGRVTMTRDTSTSTVYMELSSLRSEDTAVYYCARGVYYFDEWGQGTLVTVSS VL: DIQMTQSPSSLSASVGDRVTITCRASQGVRTNLAWFQQKPGKAPKSLIYAASSRQSGVPSRFSGSGSGTDFTLTISSLQPEDFATYYCQQYNSYPRTFGGGTKVEIK
test_readout: IC50
measured_number: 0.031
//
binder: MH11 (antibody, IgG1, V domains shown, IgG1; also called C-KIT-MH11) VH: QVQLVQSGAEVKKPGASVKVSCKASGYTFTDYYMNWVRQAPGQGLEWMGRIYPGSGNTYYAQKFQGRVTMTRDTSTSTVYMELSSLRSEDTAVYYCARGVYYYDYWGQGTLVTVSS VL: DIQMTQSPSSLSASVGDRVTITCRASQGIRTNLAWFQQKPGKAPKSLIYAASSLQSGVPSRFSGSGSGTDFTLTISSLQPEDFATYYCQQYNAYPRTFGGGTKVEIK
test_readout: IC50
measured_number: 0.051
//
binder: F-F2 (antibody, IgG1, V domains shown, IgG1; also called C-KIT-F-F2) VH: QVQLVQSGAEVKKPGASVKVSCKASGYTFTDYYMNWVRQAPGQGLEWMGRIYPGSGNTYYAQKFQGRVTMTRDTSTSTVYMELSSLRSEDTAVYYCARGVYYQDYWGQGTLVTVSS VL: DIQMTQSPSSLSASVGDRVTITCRASQGVRTNVAWFQQKPGKAPKSLIYAASSRQSGVPSRFSGSGSGTDFTLTISSLQPEDFATYYCQQYNSYPRTFGGGTKVEIK
test_readout: IC50
measured_number: 0.046
